Recorded measurements of INHIBITION, one per entry
System: Plasmodium berghei
test: Screen against P. berghei liver stage (PbLuc), transformed with Luciferase, at 2uM
Format: functional, HepG2
experimental.parameters: tested at 2 uM
In all, about 68,000 compounds went through this assay and about 2,700 (4%) showed an effect of 50% or more. The sample as a whole holds a higher share of strong results than the screen did.

>  <compound>
COCCC(=O)N1CCC(C(=O)c2cc(C)cnc2N)CC1

>  <INHIBITION [%]>
41.56

$$$$
>  <compound>
CC(C)N1CC[C@H](c2nc3ccc(C(F)(F)F)cc3[nH]2)C1

>  <INHIBITION [%]>
4

$$$$
>  <compound>
CCc1nc(CN2CCCC2c2c(C)nn(C)c2OC)no1 (centres undefined)

>  <INHIBITION [%]>
23.94

$$$$
>  <compound>
COc1ccc(-c2csc(-c3cccc(C(=O)O)c3)n2)cc1OC

>  <INHIBITION [%]>
-60.47

$$$$
>  <compound>
CCn1ncc(NC(=O)c2cc(C3CC3)nc3c2c(C)nn3C)c1C

>  <INHIBITION [%]>
52.52

$$$$
>  <compound>
COc1c(C2CCCN2Cc2nccn2C)c(C)nn1C (centres undefined)

>  <INHIBITION [%]>
56.47

$$$$
>  <compound>
Cc1cc(C)n(C2CN(CC(O)COc3ccc(F)cc3)C2)n1 (centres undefined)

>  <INHIBITION [%]>
12.31

$$$$
>  <compound>
CCn1nccc1CNC(=O)C1CCCCC1

>  <INHIBITION [%]>
-39.57

$$$$
>  <compound>
COc1c(C2CCCN2Cc2noc(C)n2)c(C)nn1C (centres undefined)

>  <INHIBITION [%]>
21.83

$$$$
>  <compound>
Fc1ccc(CN2CCC(c3n[nH]c4ncccc34)CC2)cc1F

>  <INHIBITION [%]>
19.51

$$$$
>  <compound>
COc1c(C2CCCN2Cc2nnc(C3CC3)n2C)c(C)nn1C (centres undefined)

>  <INHIBITION [%]>
28.1

$$$$
>  <compound>
COc1cccc(-n2nnc(C(=O)N3CCC(C(N)=O)CC3)c2C)c1

>  <INHIBITION [%]>
56.78

$$$$
>  <compound>
COCC(=O)N1CCN(C(=O)C2CCCCC2)[C@@H](C(=O)OC)C1

>  <INHIBITION [%]>
72.68

$$$$
>  <compound>
Cc1cc(C(=O)Nc2cc(C3CC3)n[nH]2)c2c(C)nn(C)c2n1

>  <INHIBITION [%]>
40.99

$$$$
>  <compound>
Oc1nc(-c2cnccn2)nc2c1CCN(Cc1ccccn1)C2

>  <INHIBITION [%]>
19.47

$$$$
>  <compound>
COc1cccc(-n2nnc(C(=O)N3CCCCCC3)c2C)c1

>  <INHIBITION [%]>
30.05

$$$$
>  <compound>
COc1cccc(-n2nnc(C(=O)N3CCN(C)CC3C)c2C)c1 (centres undefined)

>  <INHIBITION [%]>
89.42

$$$$
>  <compound>
O=C([C@H]1C[C@H]2OCC[C@H]2N(Cc2ccccc2F)C1)N1CCCCO1

>  <INHIBITION [%]>
29.33

$$$$
>  <compound>
CN(C)C(=O)c1n[nH]c2c1CN(Cc1nccs1)CC2

>  <INHIBITION [%]>
-8.84

$$$$
>  <compound>
COc1cccc(-n2nnc(C(=O)N3CCOC(C)C3)c2C)c1 (centres undefined)

>  <INHIBITION [%]>
32.64

$$$$
>  <compound>
COC(=O)[C@H]1CN(C(C)=O)CCN1C(C)=O

>  <INHIBITION [%]>
56.21

$$$$
>  <compound>
CSCCCN1CCCC1c1noc(C(C)C)n1 (centres undefined)

>  <INHIBITION [%]>
5.05

$$$$
>  <compound>
Fc1cccc(Cl)c1CN1CCC(c2n[nH]c3ncccc23)CC1

>  <INHIBITION [%]>
53.65

$$$$
>  <compound>
O=C(Cc1ccccn1)N1CCc2c(O)nc(-c3cnccn3)nc2C1

>  <INHIBITION [%]>
56.57

$$$$

* * *

Test system: Plasmodium berghei
test: Screen against P. berghei liver stage (PbLuc), transformed with Luciferase, at 2uM
Assay type: functional, HepG2
experimental.parameters: tested at 2 uM
The campaign covered roughly 68,000 compounds. About 2,700 (4%) showed an effect of 50% or more. Only a selection was taken, and strong results are over-represented in it overall.
Recorded measurements of INHIBITION, one per entry
property: INHIBITION (%)

>  <compound>
COc1ccccc1OCCN1CCCC(c2cc(C(N)=O)[nH]n2)C1 (centres undefined)

>  <study.system>
Plasmodium berghei

>  <result.unit>
%

>  <recorded.measurement>
31.51

$$$$
>  <compound>
CNc1ncc(CN(C)C(=O)c2cccc(CC3CCNCC3)c2)cn1

>  <study.system>
Plasmodium berghei

>  <result.unit>
%

>  <recorded.measurement>
52.98

$$$$
>  <compound>
O=C(CN1C=Nc2ccccc2S1(=O)=O)NCc1ccccc1F

>  <study.system>
Plasmodium berghei

>  <result.unit>
%

>  <recorded.measurement>
68.24

$$$$
>  <compound>
CCC(C)(C)NC(=O)CN1C=Nc2ccccc2S1(=O)=O

>  <study.system>
Plasmodium berghei

>  <result.unit>
%

>  <recorded.measurement>
51.94

$$$$
>  <compound>
Cc1ccc(CNC(=O)CN2C=Nc3ccccc3S2(=O)=O)s1

>  <study.system>
Plasmodium berghei

>  <result.unit>
%

>  <recorded.measurement>
3.86

$$$$
>  <compound>
O=C(CN1C=Nc2ccccc2S1(=O)=O)NCC1CC1

>  <study.system>
Plasmodium berghei

>  <result.unit>
%

>  <recorded.measurement>
66.2

$$$$
>  <compound>
CC(C)CNC(=O)CN1C=Nc2ccccc2S1(=O)=O

>  <study.system>
Plasmodium berghei

>  <result.unit>
%

>  <recorded.measurement>
21.89

$$$$
>  <compound>
CN(Cc1c(F)cccc1Cl)C(=O)c1cnn(CCN2CCCCC2)c1

>  <study.system>
Plasmodium berghei

>  <result.unit>
%

>  <recorded.measurement>
60.04

$$$$
>  <compound>
CCCNC(=O)NC(=O)CN1C=Nc2ccccc2S1(=O)=O

>  <study.system>
Plasmodium berghei

>  <result.unit>
%

>  <recorded.measurement>
-35.65

$$$$
>  <compound>
Cc1nc(CN(C)C(=O)c2cccc(CC3CCNCC3)c2)no1

>  <study.system>
Plasmodium berghei

>  <result.unit>
%

>  <recorded.measurement>
24.36

$$$$
>  <compound>
NC(=O)c1cc2c(nc1N)CCN(C(=O)C1CCCCC1)C2

>  <study.system>
Plasmodium berghei

>  <result.unit>
%

>  <recorded.measurement>
6.97

$$$$
>  <compound>
N#Cc1ccc(C(=O)N2CC(c3nc(-c4ncccn4)no3)C2)cc1

>  <study.system>
Plasmodium berghei

>  <result.unit>
%

>  <recorded.measurement>
11.43

$$$$
>  <compound>
CN(Cc1c(F)cccc1Cl)C(=O)Cn1cnc(C#N)n1

>  <study.system>
Plasmodium berghei

>  <result.unit>
%

>  <recorded.measurement>
-6.73

$$$$
>  <compound>
NC(=O)c1cc(C2CCCN(CCc3ccccn3)C2)n[nH]1 (centres undefined)

>  <study.system>
Plasmodium berghei

>  <result.unit>
%

>  <recorded.measurement>
58.53

$$$$
>  <compound>
CCOc1ccc(Cl)cc1C1CCCCN1 (centres undefined)

>  <study.system>
Plasmodium berghei

>  <result.unit>
%

>  <recorded.measurement>
14.61

$$$$
>  <compound>
CN(Cc1c(F)cccc1Cl)C(=O)c1cnn(CCN2CCOCC2)c1

>  <study.system>
Plasmodium berghei

>  <result.unit>
%

>  <recorded.measurement>
-9.03

$$$$
>  <compound>
COc1cccc(CN2CCCC(c3cc(C(N)=O)[nH]n3)C2)c1 (centres undefined)

>  <study.system>
Plasmodium berghei

>  <result.unit>
%

>  <recorded.measurement>
54.99

$$$$
>  <compound>
CC(C)(C)NC(=O)NC(=O)CN1C=Nc2ccccc2S1(=O)=O

>  <study.system>
Plasmodium berghei

>  <result.unit>
%

>  <recorded.measurement>
13.24

$$$$
>  <compound>
CCn1cc(C(=O)N(C)Cc2c(F)cccc2Cl)cn1

>  <study.system>
Plasmodium berghei

>  <result.unit>
%

>  <recorded.measurement>
53.13

$$$$
>  <compound>
CCCS(=O)(=O)N1CCOC2(CCCN(c3ccc(C)nn3)C2)C1 (centres undefined)

>  <study.system>
Plasmodium berghei

>  <result.unit>
%

>  <recorded.measurement>
-15.73

$$$$
>  <compound>
CCn1cnnc1CNC(=O)N(C)Cc1c(F)cccc1Cl

>  <study.system>
Plasmodium berghei

>  <result.unit>
%

>  <recorded.measurement>
-17.88

$$$$
>  <compound>
OCCN1CCN(Cc2coc(-c3cccc(F)c3)n2)CC1

>  <study.system>
Plasmodium berghei

>  <result.unit>
%

>  <recorded.measurement>
45.83

$$$$
>  <compound>
CN(Cc1ccno1)C(=O)c1cccc(CC2CCNCC2)c1

>  <study.system>
Plasmodium berghei

>  <result.unit>
%

>  <recorded.measurement>
38.67

$$$$
>  <compound>
CN(Cc1c(F)cccc1Cl)C(=O)Nc1cnn(CC(N)=O)c1

>  <study.system>
Plasmodium berghei

>  <result.unit>
%

>  <recorded.measurement>
11.07

$$$$
